- assayed_system: T1, human MSLN-R3 protein expressed on HEK293T cells (HEK293T-hMSLN-R3) (human, UniProt Q13421 487-606)
- T1 construct: C-terminal limit uncertain
- T1 sequence (Q13421 495-614): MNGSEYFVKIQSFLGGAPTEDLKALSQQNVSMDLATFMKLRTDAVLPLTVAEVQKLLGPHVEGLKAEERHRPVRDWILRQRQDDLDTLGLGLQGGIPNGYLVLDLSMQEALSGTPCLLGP
- protocol_text: FACS on HEK293T-hMSLN-R3 cells;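 further: chimeric antibodies incubated with cells on ice for 2 h, binding read by flow cytometry as mean fluorescence intensity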
Reported Maximum mean fluorescence intensity values for the following binders.
Please reply with the value in numeric form only.

The following binders have reported results that may help.
{"binder": "S009-F8-15.19 (antibody, human IgG1, kappa, V domains shown, human-murine chimeric antibody, human IgG1/kappa constant regions) VH: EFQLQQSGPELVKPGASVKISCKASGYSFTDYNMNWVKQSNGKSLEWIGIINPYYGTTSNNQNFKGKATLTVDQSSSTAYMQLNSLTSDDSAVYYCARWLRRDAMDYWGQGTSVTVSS VL: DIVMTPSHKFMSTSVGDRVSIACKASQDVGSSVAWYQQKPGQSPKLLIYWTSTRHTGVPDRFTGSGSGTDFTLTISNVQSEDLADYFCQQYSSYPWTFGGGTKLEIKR", "measured_quantity": "Maximum mean fluorescence intensity", "observed_value": 165}
{"binder": "S009-F8-29.1 (antibody, human IgG1, kappa, V domains shown, human-murine chimeric antibody, human IgG1/kappa constant regions) VH: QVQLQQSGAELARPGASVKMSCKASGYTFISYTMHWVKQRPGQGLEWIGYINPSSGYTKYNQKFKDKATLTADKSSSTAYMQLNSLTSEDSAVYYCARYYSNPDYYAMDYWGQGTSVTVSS VL: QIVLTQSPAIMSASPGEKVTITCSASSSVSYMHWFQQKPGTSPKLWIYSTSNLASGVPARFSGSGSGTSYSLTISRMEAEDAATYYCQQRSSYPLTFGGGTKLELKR", "measured_quantity": "Maximum mean fluorescence intensity", "observed_value": 69}
{"binder": "S009-F8-5.15 (antibody, human IgG1, kappa, V domains shown, human-murine chimeric antibody, human IgG1/kappa constant regions) VH: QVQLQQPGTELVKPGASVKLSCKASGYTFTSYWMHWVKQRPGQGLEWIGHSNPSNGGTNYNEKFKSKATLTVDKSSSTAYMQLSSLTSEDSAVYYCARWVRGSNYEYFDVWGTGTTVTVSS VL: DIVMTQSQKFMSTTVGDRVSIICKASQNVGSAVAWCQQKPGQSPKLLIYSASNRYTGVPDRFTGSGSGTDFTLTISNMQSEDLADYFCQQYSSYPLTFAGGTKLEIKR", "measured_quantity": "Maximum mean fluorescence intensity", "observed_value": 98}
{"binder": "S009-F8-33.12 (antibody, human IgG1, kappa, V domains shown, human-murine chimeric antibody, human IgG1/kappa constant regions) VH: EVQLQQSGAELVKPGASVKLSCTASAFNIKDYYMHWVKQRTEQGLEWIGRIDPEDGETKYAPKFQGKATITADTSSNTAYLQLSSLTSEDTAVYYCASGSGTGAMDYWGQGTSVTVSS VL: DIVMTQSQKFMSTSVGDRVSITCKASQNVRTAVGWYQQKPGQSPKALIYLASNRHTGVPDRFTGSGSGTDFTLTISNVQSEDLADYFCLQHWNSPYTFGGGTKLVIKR", "measured_quantity": "Maximum mean fluorescence intensity", "observed_value": 64}
{"binder": "S009-F8-7.5 (antibody, human IgG1, kappa, V domains shown, human-murine chimeric antibody, human IgG1/kappa constant regions) VH: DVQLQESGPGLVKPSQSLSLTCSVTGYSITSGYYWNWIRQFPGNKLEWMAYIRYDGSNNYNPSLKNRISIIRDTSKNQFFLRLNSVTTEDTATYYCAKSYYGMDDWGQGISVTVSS VL: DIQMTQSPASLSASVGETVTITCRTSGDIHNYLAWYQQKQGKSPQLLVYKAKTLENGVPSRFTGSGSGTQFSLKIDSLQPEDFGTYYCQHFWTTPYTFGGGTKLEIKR", "measured_quantity": "Maximum mean fluorescence intensity", "observed_value": 279}

The recorded Maximum mean fluorescence intensity for entry Tab106 (YP218, hIgG1) (antibody, V domains shown, control antibody; YP218 VH and VL in human IgG1 CH and CL vectors; also called YP218 human IgG1 antibody) VH: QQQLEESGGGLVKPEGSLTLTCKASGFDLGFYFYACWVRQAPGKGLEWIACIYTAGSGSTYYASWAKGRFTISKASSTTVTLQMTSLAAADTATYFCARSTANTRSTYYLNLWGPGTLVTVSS VL: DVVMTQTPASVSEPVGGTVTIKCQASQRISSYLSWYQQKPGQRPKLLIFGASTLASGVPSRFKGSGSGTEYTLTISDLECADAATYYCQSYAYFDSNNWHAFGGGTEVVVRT equals 24500

Sourced from patent US20250250357A1
